# Tested on: 947758-054-R-J2-PDC spheroid growth, percent test/control;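 also: spheroids exposed to compounds for one week before readout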
# assay_overview: Anticancer human tumor 947758-054-R-J2-PDC patient-derived colon adenocarcinoma cell line growth inhibition [CLK]; active = viability on the fitted dose curve at most 10% of control; inactive = the rest
# particulars: second compound 1 µM; first compound 0.1 µM; spheroids with HUVEC and MSC
Parameter call: string, one of t (active), f (inactive)

Ask: Please let me know the test result on file for C=CC(=O)N1CCN(c2nc(=O)n(-c3c(C)ccnc3C(C)C)c3nc(-c4c(O)cccc4F)c(F)cc23)C(C)C1 (stereo not given) + CNC(=O)c1ccc(Nc2nc(OC3CCCC3)c3c(-c4ccc5nc(C)oc5c4)c[nH]c3n2)c(OC)c1 .
Reply: f

Ask: Please let me know the test result on file for O=C(c1cc(Cc2n[nH]c(=O)c3ccccc23)ccc1F)N1CCN(C(=O)C2CC2)CC1 + CN1CCN(c2cc(C(=O)Nc3cc4cc(-c5cnn(C)c5)ccc4cn3)ccn2)CC1 .
Reply: t

Ask: Please let me know the test result on file for COc1cccc2c1C(=O)c1c(O)c3c(c(O)c1C2=O)CC(O)(C(=O)CO)CC3OC1CC(N)C(O)C(C)O1 (stereo not given) + CN1CCN(c2cc(C(=O)Nc3cc4cc(-c5cnn(C)c5)ccc4cn3)ccn2)CC1 .
Reply: t

Ask: Please let me know the test result on file for CC(Nc1ccc2c(c1)OCCn1cc(N3C(=O)OCC3C(F)F)nc1-2)C(N)=O (stereo not given) + CNC(=O)c1ccc(Nc2nc(OC3CCCC3)c3c(-c4ccc5nc(C)oc5c4)c[nH]c3n2)c(OC)c1 .
Reply: f

Ask: Please let me know the test result on file for CC(CO)NC(=O)c1cc(-c2ccc(Cl)cc2)nn(-c2cnn(C)c2)c1=O (stereo not given) + CNC(=O)c1ccc(Nc2nc(OC3CCCC3)c3c(-c4ccc5nc(C)oc5c4)c[nH]c3n2)c(OC)c1 .
Reply: f

Ask: Please let me know the test result on file for CCN1CCN(Cc2ccc(Nc3ncc(F)c(-c4cc(F)c5nc(C)n(C(C)C)c5c4)n3)nc2)CC1 + CN1CCN(c2cc(C(=O)Nc3cc4cc(-c5cnn(C)c5)ccc4cn3)ccn2)CC1 .
Reply: t

Ask: Please let me know the test result on file for COc1ccc([C@@H](O)c2cc(-c3ncnc4cc(N5CCOCC5)ccc34)c(F)cc2Cl)nn1 + CNC(=O)c1ccc(Nc2nc(OC3CCCC3)c3c(-c4ccc5nc(C)oc5c4)c[nH]c3n2)c(OC)c1 .
Reply: f

Ask: Please let me know the test result on file for CCc1c2c(nc3ccc(O)cc13)-c1cc3c(c(=O)n1C2)COC(=O)[C@]3(O)CC + CNC(=O)c1ccc(Nc2nc(OC3CCCC3)c3c(-c4ccc5nc(C)oc5c4)c[nH]c3n2)c(OC)c1 .
Reply: t

Ask: Please let me know the test result on file for COc1c(OCCCN2CCOCC2)ccc2c3n(c(=NC(=O)c4cnc(N)nc4)nc12)CCN3 + CNC(=O)c1ccc(Nc2nc(OC3CCCC3)c3c(-c4ccc5nc(C)oc5c4)c[nH]c3n2)c(OC)c1 .
Reply: t

Ask: Please let me know the test result on file for CC(=O)O[C@H]1C(=O)[C@@]2(C)[C@H]([C@H](OC(=O)c3ccccc3)[C@]3(O)C[C@H](OC(=O)[C@H](O)[C@@H](NC(=O)c4ccccc4)c4ccccc4)C(C)=C1C3(C)C)[C@]1(OC(C)=O)CO[C@@H]1C[C@@H]2O + CN1CCN(c2cc(C(=O)Nc3cc4cc(-c5cnn(C)c5)ccc4cn3)ccn2)CC1 .
Reply: t
